# stated conditions: human
Recorded Hepatotoxicity (cytolytic) by entry
Answer field: number only, no words.

Cc1nc(NS(=O)(=O)c2ccc(N)cc2)oc1C ... 0
c1ccc(C2(c3ccccc3)CC2C2=NCCN2)cc1 (stereo not drawn) ... 2
CCN1CCN(C(=O)N[C@@H](C(=O)N[C@@H]2C(=O)N3[C@@H]2SC(C)(C)[C@@H]3C(=O)O)c2ccccc2)C(=O)C1=O.C[C@]1(Cn2ccnn2)[C@H](C(=O)O)N2C(=O)C[C@H]2S1(=O)=O ... 0
CN(C)/N=N/c1[nH]cnc1C(N)=O ... 4
COc1cccc(OC)c1C(=O)N[C@@H]1C(=O)N2[C@@H]1SC(C)(C)[C@@H]2C(=O)O ... 0

Given item "CC(=O)N[C@@H](CS)C(=O)O" , the value recorded as its Hepatotoxicity (cytolytic) is 1

Record CC(NN)c1ccccc1 (stereo not drawn) , field Hepatotoxicity (cytolytic): 0

Short answer for CN(C)CCCC1(c2ccc(F)cc2)OCc2cc(C#N)ccc21 (stereo not drawn) : Hepatotoxicity (cytolytic) was 1

* * *

# stated conditions: human, serum
Hepatotoxicity (moderate) vs 1: at or above is Yes, below is No.

# example entries with known answers
O=c1[nH]c(=O)n([C@H]2C[C@H](O)[C@@H](CO)O2)cc1F ... Yes
CCN1CCC[C@H]1CNC(=O)c1c(OC)ccc(Br)c1OC [REMOXIPRIDE] ... Yes
CNC(=O)OCc1cccc(COC(=O)NC)n1 [PYRICARBATE] ... Yes
CC(=O)Nc1ccc(/C=N/NC(N)=S)cc1 ... Yes
CC1=C(/C=C/C(C)=C/C=C/C(C)=C/C(=O)Nc2ccc(O)cc2)C(C)(C)CCC1 [FENRETINIDE] ... Yes

Exam item: decide whether the reported Hepatotoxicity (moderate) for COc1cc(C(=O)NCc2ccc(OCCN(C)C)cc2)cc(OC)c1OC [TRIMETHOBENZAMIDE] is at least 1.
No

Quick check, Hepatotoxicity (moderate) >= 1? "Clc1ccccc1C(c1ccccc1)(c1ccccc1)n1ccnc1"
Yes

Is it the case that C#CC(C)(O)CC (centres undefined) has Hepatotoxicity (moderate) reaching or exceeding 1?
No

Reported Hepatotoxicity (moderate) at or above 1? "NC(=O)c1csc([C@@H]2O[C@H](CO)[C@@H](O)[C@H]2O)n1"
Yes

Identify whether the reported Hepatotoxicity (moderate) of the following compound is 1 or greater: "NC(CO)(CO)CO"
No

Determine whether this compound has Hepatotoxicity (moderate) no lower than 1: CC(C(=O)O)c1ccc(N2CC=CC2)c(Cl)c1 (centres undefined)
Yes

Hi, just wondering whether "CN/C(=N/CCSCc1nc[nH]c1C)NC#N" shows Hepatotoxicity (moderate) of 1 or higher.
Yes

State whether the measured Hepatotoxicity (moderate) reaches 1, counting equality as reaching it, for CC(C)(Oc1ccc(C2CC2(Cl)Cl)cc1)C(=O)O (centres undefined) [CIPROFIBRATE]
Yes

For this compound, is measured Hepatotoxicity (moderate) 1 or higher? "C[C@H]1C[C@@H]2[C@H]([C@@H](O)C[C@@]3(C)[C@H]2CC[C@]3(O)C(=O)CO)[C@@]2(C)C=CC(=O)C=C12"
No

# bool: Hepatotoxicity (moderate) of "CN1C(C(=O)Nc2ccccn2)=C(O)c2ccccc2S1(=O)=O" >= 1
Yes

Identify whether the reported Hepatotoxicity (moderate) of the following compound is 1 or greater: CCC(C)(C)NCC(O)COc1ccccc1C(=O)CCc1ccccc1 (centres undefined)
Yes

Does CC(C)(C)NCC(O)c1ccc(O)c(CO)c1 (centres undefined) have a reported Hepatotoxicity (moderate) of at least 1?
No
